Origin of values: patent US8822464B2

Target: human recombinant mGluR5 (Homo sapiens, UniProt P41594)
Construct: cultured with tetracycline, hygromycin and geneticin; tetracycline withdrawn 3-7 days before the assay
Sequence (P41594 21-1212): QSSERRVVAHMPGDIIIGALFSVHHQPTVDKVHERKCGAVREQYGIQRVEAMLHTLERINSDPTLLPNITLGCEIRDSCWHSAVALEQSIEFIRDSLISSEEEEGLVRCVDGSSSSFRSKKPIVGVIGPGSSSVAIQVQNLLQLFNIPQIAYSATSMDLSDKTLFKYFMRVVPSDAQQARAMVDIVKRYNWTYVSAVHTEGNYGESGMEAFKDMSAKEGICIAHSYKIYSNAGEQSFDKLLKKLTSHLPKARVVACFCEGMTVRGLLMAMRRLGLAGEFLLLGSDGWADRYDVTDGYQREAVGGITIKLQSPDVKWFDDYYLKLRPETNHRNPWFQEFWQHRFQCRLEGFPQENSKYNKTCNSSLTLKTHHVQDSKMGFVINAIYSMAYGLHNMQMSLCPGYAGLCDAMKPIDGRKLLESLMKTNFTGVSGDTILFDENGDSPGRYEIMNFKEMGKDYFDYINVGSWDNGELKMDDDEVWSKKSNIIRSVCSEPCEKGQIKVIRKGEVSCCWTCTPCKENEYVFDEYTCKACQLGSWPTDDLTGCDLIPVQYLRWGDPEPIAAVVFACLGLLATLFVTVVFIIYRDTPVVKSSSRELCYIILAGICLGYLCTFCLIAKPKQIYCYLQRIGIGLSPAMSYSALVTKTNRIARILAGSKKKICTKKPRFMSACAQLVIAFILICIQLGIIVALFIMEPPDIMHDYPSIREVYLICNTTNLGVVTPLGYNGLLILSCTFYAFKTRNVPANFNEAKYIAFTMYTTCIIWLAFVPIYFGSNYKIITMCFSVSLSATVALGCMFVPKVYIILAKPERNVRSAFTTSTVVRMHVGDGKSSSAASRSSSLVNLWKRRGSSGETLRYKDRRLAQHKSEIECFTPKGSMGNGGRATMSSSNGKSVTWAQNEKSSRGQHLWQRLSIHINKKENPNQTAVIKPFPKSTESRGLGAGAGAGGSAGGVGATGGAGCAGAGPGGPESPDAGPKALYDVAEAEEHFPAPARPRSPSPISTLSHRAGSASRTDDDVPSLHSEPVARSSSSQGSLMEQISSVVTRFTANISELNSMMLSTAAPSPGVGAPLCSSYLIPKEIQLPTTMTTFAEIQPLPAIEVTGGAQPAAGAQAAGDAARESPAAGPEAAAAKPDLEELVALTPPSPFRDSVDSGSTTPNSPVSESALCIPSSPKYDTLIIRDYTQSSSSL
Test: positive modulation of mGluR5, calcium based FLIPR assay in HEK 293 cells
Details: HEK 293 cell line expressing human recombinant mGluR5; peak height of Ca release fluorescence signal after glutamate at approximately 5% basal stimulation; nonlinear regression
The entries below are paired with their reported EC50.
API: value field is a number in nM; no unit string.

Below, 3 compounds whose answers are already recorded.
INSERT INTO results (smiles_entry, test_target, quantity_kind, value_units, reading) VALUES
  ('O=C(Cn1nc(-c2ccc(F)cn2)cc1-c1ccc(F)cc1)N1CCN(c2ncccn2)CC1', 'human recombinant mGluR5 (Homo sapiens, UniProt P41594)', 'EC50', 'nM', 48),
  ('CCc1cc(-c2ccc(C)c(F)c2)nn1CC(=O)N1CCN(c2ccccn2)CC1', 'human recombinant mGluR5 (Homo sapiens, UniProt P41594)', 'EC50', 'nM', 434),
  ('COc1ccc(-c2cc(C(C)C)n(CC(=O)N3CCN(c4ccccn4)CC3)n2)cc1C', 'human recombinant mGluR5 (Homo sapiens, UniProt P41594)', 'EC50', 'nM', 393);

// query Recorded EC50 for CCc1cc(-c2cccc(C)c2)nn1CC(=O)N1CCN(c2ncc(OC)cn2)CC1 , please?
// result 126

// query Quick one: COC(=O)c1ccc(-c2cc(-c3ccccc3)n(CC(=O)N3CCN(c4ncccn4)CC3)n2)cc1
// result 392

// query Similarly, COc1cc(N2CCN(C(=O)Cn3nc(-c4ccc(F)c(C)c4)cc3C3CCCCC3)CC2)ncn1 ?
// result 308

// query // repeat for Cc1cc(-c2cc(C3CCCCC3)n(CC(=O)N3CCN(c4ccccn4)CC3)n2)ccc1F and report
// result 213

// query Also O=C(Cn1nc(-c2ccc(F)cn2)cc1-c1ccccc1)N1CCN(c2ccccn2)CC1 ?
// result 211

====

pEC50 listing for selected compounds.
Biological target: human recombinant mGluR5 (Homo sapiens, UniProt P41594)
Construct: cultured with tetracycline, hygromycin and geneticin; tetracycline withdrawn 3-7 days before the assay
Assay: positive modulation of mGluR5, calcium based FLIPR assay in HEK 293 cells
Details: HEK 293 cell line expressing human recombinant mGluR5; peak height of Ca release fluorescence signal after glutamate at approximately 5% basal stimulation; nonlinear regression
Formally, pEC50 is defined as -log10 of the concentration c, with c in mol/L.

Please review the following examples before continuing.
INSERT INTO measurements (compound, reading) VALUES
  ('Cc1cc(-c2cc(C3CC3)n(CC(=O)N3CCN(c4ccccn4)CC3)n2)ccc1F [Example 7.01.41]', 6.63),
  ('COCCCc1cc(-c2ccc(F)c(C)c2)nn1CC(=O)N1CCN(c2ncccn2)CC1 [Example 7.01.107]', 7.19),
  ('CCc1cc(-c2ccc(F)cc2)nn1CC(=O)N1CCN(c2ncc(OC)cn2)CC1 [Example 7.01.76]', 6.41),
  ('CCc1cc(-c2ccc(F)c(C)c2)nn1CC(=O)N1CCN(c2cccc(OC)c2)CC1 [Example 7.01.145]', 6.67),
  ('CCc1cc(-c2ccc(F)cc2)nn1CC(=O)N1CCN(c2ccccn2)CC1 [Example 7.01.73]', 6.38),
  ('O=C(Cn1nc(-c2ccc(F)cc2)cc1-c1ccc(F)cc1)N1CCN(c2ncccn2)CC1 [Example 7.01.13]', 7.85);

// query Please give the measured pEC50 for this compound: O=C(Cn1nc(-c2ccccc2)cc1-c1ccccc1)N1CCN(c2cc3ccccc3cn2)CC1 [Example 7.02.07]
// result 6.07

// query Try the compound CCc1cc(-c2ccc(C)c(F)c2)nn1CC(=O)N1CCN(c2cc(OC)ncn2)CC1 [Example 7.01.183]
// result 6.50

// query Please give the result for CCc1cc(-c2ccc(F)c(C)c2)nn1CC(=O)N1CCN(c2ncc(F)cn2)CC1 [Example 7.01.72] too.
// result 7.20

// query Then what about the compound COc1cc(-c2cc(C(C)C)n(CC(=O)N3CCN(c4cc(C)ccn4)CC3)n2)ccc1F [Example 7.01.48] ?
// result 6.16

// query Can you check Cc1cc(-c2cc(-c3ccccc3)n(CC(=O)N3CCN(c4ncccn4)CC3)n2)ccc1F [Example 7.01.01] next?
// result 8.22

// query Next compound: COc1cc(-c2cc(-c3ccccc3)nn2CC(=O)N2CCN(c3ncccn3)CC2)ccc1F [Example 7.01.153]
// result 6.56

// query Try the compound O=C(Cn1nc(-c2ccccc2)cc1-c1ccccc1)N1CCN(c2cnccn2)CC1 [Example 7.02.05]
// result 7.07

// query Check COCc1cc(-c2ccc(F)c(C)c2)nn1CC(=O)N1CCN(c2cccnn2)CC1 [Example 7.02.19] too.
// result 5.92

// query Consider next the compound COc1cc(N2CCN(C(=O)Cn3nc(-c4ccc(C)c(C)c4)cc3-c3ccccc3)CC2)ncn1 [Example 7.01.101] in the same way.
// result 7.77

// query Further, for COc1ccc(-c2cc(C(C)C)n(CC(=O)N3CCN(c4cc(OC)ncn4)CC3)n2)cc1 [Example 7.01.23] ?
// result 6.66

// query Entry COc1cc(N2CCN(C(=O)Cn3nc(-c4ccc(OC)c(C)c4)cc3-c3ccccc3)CC2)ncn1 [Example 7.01.184] please
// result 6.84

// query Also COc1cc(N2CCN(C(=O)Cn3nc(-c4ccc(C)c(F)c4)cc3-c3ccccc3)CC2)ncn1 [Example 7.01.190] ?
// result 7.33

// query Similarly, Cc1ccnc(N2CCN(C(=O)Cn3nc(-c4ccc(F)c(C)c4)cc3C3CC3)CC2)c1 [Example 7.01.44] ?
// result 6.75

// query Continue with COc1cc(N2CCN(C(=O)Cn3nc(-c4ccc(F)cc4)cc3C(C)C)CC2)ncn1 [Example 7.01.88]
// result 6.44

// query Please do the same for CCc1cc(-c2cc(C)c(F)c(C)c2)nn1CC(=O)N1CCN(c2ncc(F)cn2)CC1 [Example 7.01.142] as well.
// result 6.15
